Just for reference, PubChem BioAssay (NCI) is where these values come from.

Field: TGI. Provide a value for each of the molecules that follow.
test system: SK-OV-3 ovarian; test: NCI tumour cell line growth inhibition, 48 h
One number for each entry, in µM.

N#CC(c1cc(Cl)ncn1)c1nc2ccccc2s1 (configuration not stated) : 28.8
O=S(=O)(NCCCNc1cc(-c2cn(-c3ccccc3)nc2-c2cccc(O)c2)ccn1)c1ccc(Cl)cc1 : 7.35
Cc1cccc(NC(=S)N/N=C(/c2ccccc2)c2ccccn2)c1 : 14.1
O=c1cccc(C#CC#C/C=C/CO)o1 : 22.8
O=[N+]([O-])c1ccc(-c2cn(-c3ccc(Cl)cc3)cn2)cc1 : 24.4

Now take the following molecule into account.
**Query** GET /values?readout=TGI&system=SK-OV-3 ovarian&item= CN1CCCN(C(c2ccccc2)c2ccc(Br)cc2)CC1 (configuration not stated)
**Result** 14.5

----------
tested on: MALME-3M melanoma; test: NCI tumour cell line growth inhibition, 48 h
Field: TGI. Provide a value for each of the compounds that follow.

Below, each entry is followed by its recorded TGI result.
COc1cc(-c2cc(CCC(=O)Nc3ccccc3[N+](=O)[O-])n(-c3ccc([N+](=O)[O-])cc3[N+](=O)[O-])n2)ccc1O : > 100 µM
C=C(CN1CCN(c2cccc(F)c2)CC1)c1ccc(C(=O)Nc2ccccc2N)cc1 : 68 µM

Quick one: give me TGI for each item below, same order please.
1. CC1CCC23COC(=O)C2C(O)CCC3C1(C)CC(O)c1ccoc1 (stereo not drawn)
2. N#Cc1c2nc3ccccc3nc2n2ccc3ccccc3c12
3. Nc1ccc(N)c2c1C(=O)c1c(N)ccc(N)c1C2=O
4. O=C(O)c1cc(Sc2ccc([N+](=O)[O-])c(C(=O)O)c2)ccc1[N+](=O)[O-]
5. C/C(=N\Nc1nc2ccccc2o1)c1ccncn1

**Result**
> 100 µM
> 100 µM
> 100 µM
> 78.9 µM
97.5 µM

Quick one: give me TGI for each item below, same order please.
1. O=c1[nH]c(/C=C(\O)c2ccncc2)nc2ccccc12
2. N=c1oc2c(Cl)cc(Cl)cc2cc1C(=O)Nc1ccccn1
3. CCCCCC(/C=N/N)C(O)(C(F)(F)F)C(F)(F)F (stereo not drawn)
4. O=C(Nc1ccc(Br)cc1F)c1cc(Br)ccc1O
5. O=C1OC2C(O)C(=O)OC2C1O (stereo not drawn)
6. O=C1C(N2C(=O)c3ccccc3C2=O)CN1C(COCc1ccccc1)c1ccc(OCc2ccccc2)cc1 (stereo not drawn)
7. Cc1ccc(NC(=O)c2nc(S(C)=O)oc2-c2ccc(F)cc2)cc1Nc1nccc(-c2cccnc2)n1 (stereo not drawn)
8. ClC[Si]12OCCN(CCO1)CCO2

**Result**
> 100 µM
> 100 µM
6.69 µM
1.82 µM
> 100 µM
> 100 µM
2.89 µM
> 100 µM

----------
test system: CAKI-1 renal; test: NCI tumour cell line growth inhibition, 48 h
measured-quantity: TGI

Below, each entry is followed by its recorded TGI result.
Nc1nc2c(c3cnccc13)C(c1cccc(Cl)c1)Cc1cnccc1-2 (stereo unspecified) : 15.5 µM
CC1Cc2cc(O)ccc2C2[C@@H]1C1CC[C@H](O)[C@@]1(C)C[C@@H]2O[N+](=O)[O-] (stereo partly specified) : 73.6 µM
CCCCCC(/C=N/N)C(O)(C(F)(F)F)C(F)(F)F (stereo unspecified) : 6.02 µM
COC(=O)NN1C(C)=C(C(=O)OC)C2(CCOC2=O)C1(C)O (stereo unspecified) : > 100 µM
COc1cc([C@@H]2c3cc4c(c(O)c3C[C@H]3COC(=O)[C@@H]32)OCO4)cc(OC)c1O : < 0.02 µM
COc1cc(OC)cc(-c2cncn2-c2ccc(-c3nc4cc(OC)c(OC)c(OC)c4s3)cc2)c1 : > 100 µM

Quick one: give me TGI for each item below, same order please.
1. C/C(=N\Nc1nc2ccccc2o1)c1ccncn1
2. Oc1cc2c(cc1O)-c1[nH]ncc1CC2

**Result**
1: 42.6 µM; 2: > 100 µM
